# ASSAY_NAME: Volume distribution upon i.v. administration at the dose of 2 mg/kg in rat
# Format: ADME, organism-based
# Parameters: dose 2 mg/kg, route intravenous
# TEST_CONTEXT: in vivo, iv, read-out: Vd
PROPERTY: Vd (L/kg)

Example compounds with recorded Vd:
C(#Cc1ccccn1)C1=CC(Oc2ccncc2)CCC1 (stereo unspecified) : 1.2
C(#Cc1ccccn1)C1=CCCCC1 : 9.1
O=S(=O)(c1ccc(Br)cc1)N1CC=C(C#Cc2ccccn2)CC1 : 3.98

[a] C(#Cc1ccccn1)C1=CC(Oc2cccnc2)CCC1 (stereo unspecified)
[b] C(#Cc1ccccn1)C1=CCC(Nc2cccnc2)CC1 (stereo unspecified)
INPUT: Vd comparison. Which is larger, a or b ? Reply with the label of the item you choose.
OUTPUT: a
